- MEASURED_ON: the molecule itself
- ASSAY_SUMMARY: sedimentation equilibrium AUC, poor monomer-dimer fit, 5 C (homodimerisation)
Where no end group is shown, it is not given here. The star is where a group is joined. Cam = NC(=O)C*
MEASURED_ATTRIBUTE: Kd

[ask] Dear colleague, I am looking for the recorded Kd of the following protein: C(Cam)GGEIRALKYEIARLKQGGGGKKRALEQKIAALEGGC(Cam) (CSP-1 with a tetraglycine insert; also called design iteration 2, reduced & alkylated; CSP-4a (Maya's nomenclature)) [CSP-2r (reduced and alkylated)]
[reply] 10 to 100 mM
